system: HEK-293T; assay: Multiplex assay against HEK293T; type: toxicity, cell-based; details: human, 48 h, 10 µM, compound concentration 10 uM, replicate 1;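 for Population Tubulin-Different-Phenotype (%): share of the cells with healthy nuclei that show this phenotype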
Below, each entry is listed alongside its reported Population Tubulin-Different-Phenotype (%).
Your answer is read as %, so omit the unit and give the number.

Known results for molecules:
[[record]]
molecule = "CCOC(=O)c1c(C)[nH]c2ccc3c(c12)CN1CCc2cc(OC)ccc2C1O3 (configuration not stated)"
subject_of_test = "HEK-293T"
measured_number = 93

[[record]]
molecule = "CCn1c(=O)c(-c2ccc(-c3cncs3)cc2Cl)cc2cnc(Nc3ccc(N4CCN(C)CC4)cc3)nc21"
subject_of_test = "HEK-293T"
measured_number = 75

[[record]]
molecule = "CN1CCC(=C2c3ccccc3CC(=O)c3sccc32)CC1.O=C(O)/C=C/C(=O)O [KETOTIFEN FUMARATE]"
subject_of_test = "HEK-293T"
measured_number = 95

[[record]]
molecule = "O=C(Nc1ccc(-n2nc(-c3cccnc3)cc2C(F)(F)F)cn1)c1ccc(-c2ccccc2)c(F)c1"
subject_of_test = "HEK-293T"
measured_number = 40

[[record]]
molecule = "Cc1cc(C)c(S(=O)(=O)N(Cc2ccc(-c3cccc(S(C)(=O)=O)c3)cc2)Cc2ccc(C(F)(F)F)o2)c(C)c1"
subject_of_test = "HEK-293T"
measured_number = 80


**Q:** Quick one: give measured Population Tubulin-Different-Phenotype (%) for `Cl.Oc1ccc2c3c1O[C@H]1c4[nH]c5c(c4C[C@@]4(O)[C@@H](C2)N(CC2CC2)CC[C@]314)C[C@@]1(O)[C@H]2Cc3ccc(O)c4c3[C@@]1(CCN2CC1CC1)[C@H]5O4`
**A:** 21

**Q:** Quick one: give measured Population Tubulin-Different-Phenotype (%) for `CCc1cccc(CC)c1NC(=O)c1nn(C)c2c1CCc1cnc(Nc3ccc(C(=O)NC4CCN(C)CC4)cc3OC(F)(F)F)nc1-2`
**A:** 88

====

tested on: HEK-293T; experiment: Multiplex assay against HEK293T; format: toxicity, cell-based; details: human, 12 h, 1 µM, compound concentration 1 uM, replicate 1
METRIC NAME: Total Cell Count
No unit in the answer, only the number.

Known results for molecules:
[[record]]
molecule = "CCOc1cc(C(=O)N2CCC(N3CCN(C)CC3)CC2)ccc1Nc1ncc2c(n1)N(C1CCCC1)c1ccccc1C(=O)N2C"
subject_of_test = "HEK-293T"
measured_number = 371

[[record]]
molecule = "COc1ccc(-c2ccc3c(N4CCOCC4)nc(N4C[C@@H](C)O[C@@H](C)C4)nc3n2)cc1CO [Ku-0063794]"
subject_of_test = "HEK-293T"
measured_number = 492


Query molecule follows.
**Q:** Quick one: give measured Total Cell Count for `CCNc1cc(N[C@H]2CC[C@H](O)CC2)nc(Nc2ccc3c(ccn3Cc3ccccc3)c2)n1`
**A:** 618

====

test system: Fibroblast; assay: Multiplex assay against human fibroblast; type: toxicity, cell-based; details: 24 h, 1 µM, compound concentration 1 uM, replicate 1
Below, each entry is listed alongside its reported Total Cell Count.
No unit in the answer, only the number.

Known results for compounds:
[[record]]
compound = "O=C(Nc1ccc(-n2nc(-c3cccnc3)cc2C(F)(F)F)cn1)c1ccc(-c2ccccc2)c(F)c1"
subject_of_test = "Fibroblast"
metric_name = "Total Cell Count"
measured_number = 98

[[record]]
compound = "CNC(=O)c1ccc(Nc2nc(OC3CCCC3)c3c(-c4ccc5nc(C)oc5c4)c[nH]c3n2)c(OC)c1"
subject_of_test = "Fibroblast"
metric_name = "Total Cell Count"
measured_number = 265

[[record]]
compound = "CCN1CCN(Cc2ccc(Nc3ncc(F)c(-c4cc(F)c5nc(C)n(C(C)C)c5c4)n3)nc2)CC1.CS(=O)(=O)O"
subject_of_test = "Fibroblast"
metric_name = "Total Cell Count"
measured_number = 240

[[record]]
compound = "CCCn1c(=O)c2[nH]c(-c3cnn(Cc4cccc(C(F)(F)F)c4)c3)nc2n(CC)c1=O"
subject_of_test = "Fibroblast"
metric_name = "Total Cell Count"
measured_number = 83

[[record]]
compound = "Cl.Oc1ccc2c3c1O[C@H]1c4[nH]c5c(c4C[C@@]4(O)[C@@H](C2)N(CC2CC2)CC[C@]314)C[C@@]1(O)[C@H]2Cc3ccc(O)c4c3[C@@]1(CCN2CC1CC1)[C@H]5O4"
subject_of_test = "Fibroblast"
metric_name = "Total Cell Count"
measured_number = 84

[[record]]
compound = "C=CCn1c(=O)c2cnc(Nc3ccc(N4CCN(C)CC4)cc3)nc2n1-c1cccc(C(C)(C)O)n1"
subject_of_test = "Fibroblast"
metric_name = "Total Cell Count"
measured_number = 187


Query compound follows.
**Q:** Enter measured Total Cell Count, system Fibroblast, for the compound shown: CN(C)C(=O)C(CCN1CCC(O)(c2ccc(Cl)cc2)CC1)(c1ccccc1)c1ccccc1.Cl [LOPERAMIDE HYDROCHLORIDE]
**A:** 157

====

system: HEK-293T; assay: Multiplex assay against HEK293T; assay type: toxicity, cell-based; conditions: human, 12 h, 10 µM, compound concentration 10 uM, replicate 1
Decide using Total Cell Count: a value greater than or equal to 300 is 1, a smaller one is 0.

Solved entries:
[[record]]
mol = "CCOc1cc(C(=O)N2CCC(N3CCN(C)CC3)CC2)ccc1Nc1ncc2c(n1)N(C1CCCC1)c1ccccc1C(=O)N2C"
answer_label = 0

[[record]]
mol = "COCC(=O)NC/C=C/c1ccc2ncnc(Nc3ccc(Oc4ccc(C)nc4)c(C)c3)c2c1"
answer_label = 1

[[record]]
mol = "S=C(NCCCc1c[nH]cn1)NCCCN(Cc1ccc(Cl)c(Cl)c1)c1ccc(Br)cn1"
answer_label = 1

[[record]]
mol = "C=CCn1c(=O)c2cnc(Nc3ccc(N4CCN(C)CC4)cc3)nc2n1-c1cccc(C(C)(C)O)n1"
answer_label = 1


**Q:** Hello, I need to know if `Cc1cc(C)c(S(=O)(=O)N(Cc2ccc(-c3cccc(S(C)(=O)=O)c3)cc2)Cc2ccc(C(F)(F)F)o2)c(C)c1` has measured Total Cell Count not below 300. Thanks!
**A:** 0

**Q:** Hello, I need to know if `CCCS(=O)(=O)Nc1ccc(F)c(C(=O)c2c[nH]c3ncc(Cl)cc23)c1F` has measured Total Cell Count not below 300. Thanks!
**A:** 1

**Q:** Hello, I need to know if `CCn1cc(-c2ccnc3[nH]c(-c4cccc(CN(C)C)c4)cc23)c(-c2ccc(NC(=O)N(C)C)cc2)n1` has measured Total Cell Count not below 300. Thanks!
**A:** 1

====

test system: HEK-293T; assay: Multiplex assay against HEK293T; type: toxicity, cell-based; conditions: human, 48 h, 1 µM, compound concentration 1 uM, replicate 2
METRIC NAME: Population Mitotic Cells (%)
Your answer is read as %, so omit the unit and give the number.

Known results for compounds:
[[record]]
compound = "Cc1cn(-c2cc(NC(=O)c3ccc(C)c(Nc4nccc(-c5cccnc5)n4)c3)cc(C(F)(F)F)c2)cn1 [NILOTINIB]"
metric_name = "Population Mitotic Cells (%)"
unit_descriptor = "%"
measured_number = 83

[[record]]
compound = "CCN1CCN(Cc2ccc(Nc3ncc(F)c(-c4cc(F)c5nc(C)n(C(C)C)c5c4)n3)nc2)CC1.CS(=O)(=O)O"
metric_name = "Population Mitotic Cells (%)"
unit_descriptor = "%"
measured_number = 37

[[record]]
compound = "CCOc1cc2ncc(C#N)c(Nc3ccc(OCc4ccccn4)c(Cl)c3)c2cc1NC(=O)/C=C/CN(C)C [NERATINIB]"
metric_name = "Population Mitotic Cells (%)"
unit_descriptor = "%"
measured_number = 82


**Q:** Quick one: give measured Population Mitotic Cells (%) for `Cc1cc(C)c(S(=O)(=O)N(Cc2ccc(-c3cccc(S(C)(=O)=O)c3)cc2)Cc2ccc(C(F)(F)F)o2)c(C)c1`
**A:** 90

====

test system: Fibroblast; assay: Multiplex assay against human fibroblast; assay type: toxicity, cell-based; details: 12 h, 1 µM, compound concentration 1 uM, replicate 2
Below, each entry is listed alongside its reported Population Hoechst High Intensity Objects (%).

Known results for compounds:
[[record]]
compound = "CN1C2CCC1CC(OC(c1ccc(F)cc1)c1ccc(F)cc1)C2.Cl (stereo not drawn)"
result = "2%"

[[record]]
compound = "CN[C@@H]1C[C@H]2O[C@@](C)([C@@H]1OC)n1c3ccccc3c3c4c(c5c6ccccc6n2c5c31)C(=O)NC4"
result = "46%"


**Q:** Quick one: give measured Population Hoechst High Intensity Objects (%) for `CCOc1cc2ncc(C#N)c(Nc3ccc(OCc4ccccn4)c(Cl)c3)c2cc1NC(=O)/C=C/CN(C)C`
**A:** 8%

**Q:** Quick one: give measured Population Hoechst High Intensity Objects (%) for CN1CCC(=C2c3ccccc3CC(=O)c3sccc32)CC1.O=C(O)/C=C/C(=O)O [KETOTIFEN FUMARATE]
**A:** 5%

**Q:** Quick one: give measured Population Hoechst High Intensity Objects (%) for `COc1ccc(-c2ccc3c(N4CCOCC4)nc(N4C[C@@H](C)O[C@@H](C)C4)nc3n2)cc1CO`
**A:** 35%

**Q:** Quick one: give measured Population Hoechst High Intensity Objects (%) for CCOC(=O)c1c(C)[nH]c2ccc3c(c12)CN1CCc2cc(OC)ccc2C1O3 (stereo not drawn)
**A:** 9%

**Q:** Quick one: give measured Population Hoechst High Intensity Objects (%) for `NC(=O)c1cccc(-c2cc(Nc3ccc(OC(F)(F)F)cc3)ncn2)c1`
**A:** 39%

**Q:** Quick one: give measured Population Hoechst High Intensity Objects (%) for `COc1cccc2cc(-c3nc([C@H]4CC[C@H](C(=O)O)CC4)n4ncnc(N)c34)[nH]c12`
**A:** 26%
